Reference source for all entries: patent US12581252B2

Documented pIC50 across a set of compounds
assayedSystem: H1047R PIK3CA enzyme (Homo sapiens, UniProt P42336, H1047R)
Sequence (P42336 whole entry H1047R): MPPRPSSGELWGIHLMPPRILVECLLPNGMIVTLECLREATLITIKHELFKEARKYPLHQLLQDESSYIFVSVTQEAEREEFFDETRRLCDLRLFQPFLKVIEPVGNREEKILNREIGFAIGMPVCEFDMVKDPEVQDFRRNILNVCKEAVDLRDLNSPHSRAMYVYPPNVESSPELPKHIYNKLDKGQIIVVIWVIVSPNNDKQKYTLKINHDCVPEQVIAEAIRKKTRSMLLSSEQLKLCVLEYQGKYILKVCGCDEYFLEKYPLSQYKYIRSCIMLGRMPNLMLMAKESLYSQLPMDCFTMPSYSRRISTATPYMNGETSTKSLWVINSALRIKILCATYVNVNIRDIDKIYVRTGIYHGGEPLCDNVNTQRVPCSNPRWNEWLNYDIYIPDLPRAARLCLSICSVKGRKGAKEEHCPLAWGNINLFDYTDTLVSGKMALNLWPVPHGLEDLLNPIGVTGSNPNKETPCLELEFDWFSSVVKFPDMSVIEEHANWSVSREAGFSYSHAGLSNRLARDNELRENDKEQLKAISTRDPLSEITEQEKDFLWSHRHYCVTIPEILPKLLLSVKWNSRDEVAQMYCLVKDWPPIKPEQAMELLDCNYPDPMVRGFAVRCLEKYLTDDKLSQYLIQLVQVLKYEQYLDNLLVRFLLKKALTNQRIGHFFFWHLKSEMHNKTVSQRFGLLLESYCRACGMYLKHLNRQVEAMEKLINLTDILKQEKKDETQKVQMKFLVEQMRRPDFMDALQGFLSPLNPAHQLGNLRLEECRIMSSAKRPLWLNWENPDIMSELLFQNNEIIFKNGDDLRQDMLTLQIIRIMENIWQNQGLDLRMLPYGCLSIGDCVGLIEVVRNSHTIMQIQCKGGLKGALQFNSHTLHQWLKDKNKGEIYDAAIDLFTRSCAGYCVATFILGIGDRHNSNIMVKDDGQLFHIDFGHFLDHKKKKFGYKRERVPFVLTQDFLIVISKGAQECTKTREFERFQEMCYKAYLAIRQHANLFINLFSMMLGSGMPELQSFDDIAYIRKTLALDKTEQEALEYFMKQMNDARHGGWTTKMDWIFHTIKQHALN
Sequence (P27986 whole entry partner): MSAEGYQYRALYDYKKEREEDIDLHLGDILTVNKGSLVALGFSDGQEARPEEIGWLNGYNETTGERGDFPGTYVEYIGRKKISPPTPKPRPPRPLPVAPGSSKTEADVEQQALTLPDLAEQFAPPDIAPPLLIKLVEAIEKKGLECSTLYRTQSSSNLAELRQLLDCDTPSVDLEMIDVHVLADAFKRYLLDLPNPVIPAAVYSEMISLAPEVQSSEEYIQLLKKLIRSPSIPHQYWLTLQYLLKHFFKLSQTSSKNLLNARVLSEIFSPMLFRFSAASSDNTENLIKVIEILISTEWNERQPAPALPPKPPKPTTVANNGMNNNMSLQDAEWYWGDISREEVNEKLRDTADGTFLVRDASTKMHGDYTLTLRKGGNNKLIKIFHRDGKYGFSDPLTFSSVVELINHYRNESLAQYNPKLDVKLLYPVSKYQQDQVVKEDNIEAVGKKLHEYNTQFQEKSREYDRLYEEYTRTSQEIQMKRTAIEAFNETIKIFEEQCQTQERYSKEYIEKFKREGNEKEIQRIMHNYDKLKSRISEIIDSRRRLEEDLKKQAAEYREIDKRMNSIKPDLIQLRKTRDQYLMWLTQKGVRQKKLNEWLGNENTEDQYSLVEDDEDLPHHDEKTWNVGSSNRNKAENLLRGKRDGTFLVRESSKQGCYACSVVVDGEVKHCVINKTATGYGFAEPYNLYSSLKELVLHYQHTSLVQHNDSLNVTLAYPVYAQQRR
assayComment: ADP-Glo Biochemical PIK3CA Kinase Assay
Procedure: Compounds to be assayed were plated in 16 doses of 1:2 serial dilutions (20 nL volume each well) on a 1536-well plate, and the plate warmed to room temperature. […] To the well was added 1 μL of 200 μM ATP and 20 μM of diC8-PIP2 in Substrate Assay Buffer (50 mM HEPES pH7.4, 50 mM NaCl, 5 mM DTT and 0.03% CHAPS) to start the reaction, and the plate was shaken for 10 seconds, then spun briefly at 1500 rpm, and then incubated for 60 minutes at room temperature. […]
pIC50: −log10 of the molar value.

INSERT INTO results (compound, assaymetric, result) VALUES
  ('O=C1NC(c2cc(F)ccc2Cl)c2c(NC3CCc4ccccc43)cc(Br)cc21 (stereo not shown)', 'pIC50', '4.00 to 5.00'),
  ('O=C1NC(c2cc(F)ccc2Cl)c2c(Nc3noc4ccccc34)cc(Br)cc21 (stereo not shown)', 'pIC50', '4.00 to 5.00'),
  ('CC(C)(C#N)n1cc(-c2cc(NC(=O)c3cc(F)cc(C(F)(F)F)c3)c3c(c2)C(=O)N[C@@H]3c2cc(F)ccc2Cl)cn1', 'pIC50', '6.00 to 6.30'),
  ('O=C1NC(c2cc(F)ccc2Cl)c2c(NC(=O)n3ccc4ccccc43)cc(Br)cc21 (stereo not shown)', 'pIC50', '≥ 7.00'),
  ('Cn1cnnc1Nc1cc(NC(=O)c2cc(F)cc(C(F)(F)F)c2)c2c(c1)C(=O)NC2c1cc(F)ccc1Cl (stereo not shown)', 'pIC50', '≥ 7.00'),
  ('O=C(Nc1cc(Br)cc2c1C(c1cc(F)ccc1Cl)NC2=O)c1cc(F)cc(OC(F)F)c1 (stereo not shown)', 'pIC50', '6.30 to 7.00');

Next compound, please.
Task item: Query (compound): O=C(Nc1cccc2c1C(c1cc(F)ccc1Cl)NC2=O)c1coc2c1COC2 (stereo not shown) ; field requested: pIC50
Reply: 4.00 to 5.00

###

assayedSystem: H1047R PIK3CA enzyme (Homo sapiens, UniProt P42336, H1047R)
assayComment: ADP-Glo Biochemical PIK3CA Kinase Assay
Documented IC50 across a set of compounds

# example entries with known answers
INSERT INTO assay_data (compound, assayedsystem, assaymetric, result) VALUES
  ('O=C1N[C@@H](c2cc(F)ccc2Cl)c2c1cc(-c1ccc3ncnn3c1)cc2S(=O)(=O)Cc1ccccc1 (single isomer, unassigned) [Compound I-1906]', 'H1047R PIK3CA enzyme (Homo sapiens, UniProt P42336, H1047R)', 'IC50', '10000 to 100000 nM'),
  ('O=C1NC(c2cc(F)ccc2Cl)c2c(NC(=O)N3CCC4C3[C@@H]4C(F)(F)F)cccc21 (single isomer, unassigned) [Compound I-2329]', 'H1047R PIK3CA enzyme (Homo sapiens, UniProt P42336, H1047R)', 'IC50', '1000 to 10000 nM'),
  ('O=C1NC(c2cc(F)ccc2Cl)c2c(NC(=O)N3CCc4ccccc43)ccnc21 (centres unmarked) [Compound I-257]', 'H1047R PIK3CA enzyme (Homo sapiens, UniProt P42336, H1047R)', 'IC50', '500 to 1000 nM'),
  ('O=C1N[C@@H](c2cc(F)ccc2Cl)c2c(NC(=O)N3C[C@@](O)(C(F)(F)F)c4ccccc43)cccc21 (single isomer, unassigned) [Compound I-2386]', 'H1047R PIK3CA enzyme (Homo sapiens, UniProt P42336, H1047R)', 'IC50', '≤ 100 nM'),
  ('O=C(Nc1cc(-c2ccc3ncnn3c2)cc2c1C(c1cc(F)ccc1Cl)NC2=O)c1cc(CO)cc(C(F)(F)F)c1 (centres unmarked) [Compound I-1773]', 'H1047R PIK3CA enzyme (Homo sapiens, UniProt P42336, H1047R)', 'IC50', '10000 to 100000 nM');

Task item: Query (compound): O=C1N[C@@H](c2cc(F)ccc2Cl)c2c(NC(=O)N3C[C@@H](O)c4cc(F)ccc43)cc(-c3ccc(=O)n(C(F)F)c3)cc21 (single isomer, unassigned) [Compound I-2451] ; field requested: IC50
Reply: 1000 to 10000 nM

Task item: Another compound to check: CC1(C(=O)Nc2cc(Br)cc3c2C(c2cc(F)ccc2Cl)NC3=O)CCCC(C(F)(F)F)C1 (mixture of isomers) [Compound I-1358]
Reply: 100 to 500 nM

Task item: Another compound to check: O=C(Nc1cc(Br)cc2c1C(c1cc(Cl)ccc1Cl)NC2=O)c1cc(F)cc(C(F)(F)F)c1 (centres unmarked) [Compound I-763]
Reply: ≤ 100 nM

Task item: Another compound to check: O=C1NC(c2cc(F)ccc2Cl)c2c(Nc3cc4ccccc4cn3)cc(Br)cc21 (centres unmarked) [Compound I-1683]
Reply: 10000 to 100000 nM

Task item: Another compound to check: CC(C)(O)c1cc(NC(=O)c2cc(F)cc(C(F)(F)F)c2)c2c(n1)C(=O)N[C@H]2c1cc(F)ccc1Cl [Compound I-272]
Reply: 100 to 500 nM

Task item: Another compound to check: O=C1NC(c2cc(F)ccc2Cl)c2c(NC3CCNCC3)cc(-c3ccc4ncnn4c3)cc21 (centres unmarked) [Compound I-2024]
Reply: 10000 to 100000 nM

Task item: Another compound to check: CNC(=O)c1cc(NC(=O)c2csc3ccccc23)c2c(c1)C(=O)NC2c1ccccc1C (racemic) [Compound I-6]
Reply: ≤ 100 nM

Task item: Another compound to check: N#CC1(C(=O)Nc2cc(NC(=O)c3cc(F)cc(C(F)(F)F)c3)c3c(c2)C(=O)NC3c2cc(F)ccc2Cl)CNC1 (centres unmarked) [Compound I-2149]
Reply: ≤ 100 nM

Task item: Another compound to check: Cc1ncc(-c2cc(NC(=O)c3cc(F)cc(Cl)c3)c3c(n2)C(=O)NC3c2cc(F)ccc2Cl)cn1 (centres unmarked) [Compound I-460]
Reply: 100 to 500 nM

Task item: Another compound to check: Cc1ccccc1C1NC(=O)c2cccc(NC(=O)c3cc(F)cc(C(F)F)c3)c21 (centres unmarked) [Compound I-112]
Reply: 1000 to 10000 nM

Task item: Another compound to check: O=C(CC1CCC(O)CC1)Nc1cc(-c2ccc3ncnn3c2)cc2c1C(c1cc(F)ccc1Cl)NC2=O (centres unmarked) [Compound I-1913]
Reply: 10000 to 100000 nM

Task item: Another compound to check: CN1C[C@@H](COc2cc(NC(=O)c3cc(F)cc(C(F)(F)F)c3)c3c(c2)C(=O)N[C@@H]3c2cc(F)ccc2Cl)CC1=O (single isomer, unassigned) [Compound I-1523]
Reply: 1000 to 10000 nM
